The reported measurements were obtained from BindingDB's records for doi:10.1021/jm4013906.

Measured IC50 by item
test: Antagonist activity at P2Y1 receptor in platelet-enriched human plasma assessed as 2.5 uM ADP-induced platelet aggregation preincubated for 1 min followed by ADP induction measured at 5 mins by aggregometric analysis

molecule | unit-abbrev | value-relation-sign | IC50
O=C(Nc1ccc(OC(F)(F)F)cc1)Nc1ccccc1N1CC2(CCN(Cc3ccccc3)CC2)c2ccccc21 | µM | = | 3.3
CC(C)N1CCC2(CC1)CN(c1ccccc1NC(=O)Nc1ccc(OC(F)(F)F)cc1)c1ccccc12 | µM | = | 4.7
CC1(C)CN(c2ncccc2NC(=O)Nc2ccc(OC(F)(F)F)cc2)c2ccccc21 | µM | > | 10
O=C(Nc1ccc(OC(F)(F)F)cc1)Nc1ccccc1N1CCCc2ccccc21 | µM | > | 10
O=C(Nc1ccc(OC(F)(F)F)cc1)Nc1ccccc1N1CCOc2ccccc21 | µM | > | 10
